# System: Mus musculus
# TEST_SUMMARY: In vivo duration of action required to prevent death in mice, after iv administration of U-46619 (2 mg/kg) at 10 mg/kg po administration of compound
T50 values by entry
Entry rule: numbers only, all in h.

These recorded examples may help you get a feel for the data.
>>> reported_measurement("CCCCCCCNC(=O)c1coc(C2C3CCC(O3)C2Cc2ccccc2CCC(=O)O)n1 (centres undefined)")
27.4
>>> reported_measurement("O=C(O)CCc1ccccc1CC1C2CCC(O2)C1c1nc(C(=O)NCCc2ccc(Cl)cc2)co1 (centres undefined)")
38.7

## Input Short answer please: T50, Mus musculus, entry CCCCCNC(=O)c1coc(C2C3CCC(O3)C2Cc2ccccc2CCC(=O)O)n1 (centres undefined)
## Output 29.4

## Input Short answer please: T50, Mus musculus, entry O=C(O)CCc1ccccc1CC1C2CCC(O2)C1c1nc(C(=O)NCCCCC2CCCCC2)co1 (centres undefined)
## Output 49.6
